Tested on: Candida albicans
TEST: Antifungal activity against Candida albicans RCMB 05035
Format: functional
Listed here: items and their measured MIC.

COMPOUND | MIC
COc1ccc2cc(C(C)C(=O)Nc3ccc4c(c3)Sc3ccccc3N4)ccc2c1 (centres undefined) | 31.2 µg/mL
OC(Cn1cncn1)(Cn1cncn1)c1ccc(F)cc1F | 0.24 µg/mL
COc1ccc2cc(C(C)C(=O)Nc3ccc(C(=O)O)cc3)ccc2c1 (centres undefined) | 62.5 µg/mL
COc1ccc2cc(C(C)C3=N/C(=C/c4ccc(F)cc4)C(=O)O3)ccc2c1 (centres undefined) | 125 µg/mL
COc1ccc2cc(C(C)C(=O)Nc3ccc(S(=O)(=O)Nc4cc(C)on4)cc3)ccc2c1 (centres undefined) | 250 µg/mL
COc1ccc2cc(C(C)C(=O)Nc3ccc(S(=O)(=O)NC(C)=O)cc3)ccc2c1 (centres undefined) | 31.2 µg/mL
COc1ccc2cc(C(C)C(=O)NCc3n[nH]c(=S)n3N)ccc2c1 (centres undefined) | 62.5 µg/mL
COc1ccc2cc(C(C)C(=O)NCc3n[nH]c(=S)[nH]3)ccc2c1 (centres undefined) | 31.2 µg/mL

* * *

Tested on: Pseudomonas aeruginosa
TEST: Antibacterial activity against Pseudomonas aeruginosa RCMB 010043 after 24 hrs by twofold serial dilution method
Assay type: functional
CONDITION PARAMETERS: RCMB 010043, 24 h
MIC vs 30 µg/mL: less than gives fulfilled; not less than gives not fulfilled.

MOLECULE | GROUP LABEL
COc1ccc2cc(C(C)C(=O)Nc3ccc(C(=O)O)cc3)ccc2c1 (centres undefined) | fulfilled
COc1ccc2cc(C(C)C3=N/C(=C/c4ccc(F)cc4)C(=O)O3)ccc2c1 (centres undefined) | not fulfilled
COc1ccc2cc(C(C)C(=O)NCc3n[nH]c(=S)n3N)ccc2c1 (centres undefined) | not fulfilled
COc1ccc2cc(C(C)C(=O)Nc3ccc(S(=O)(=O)NC(C)=O)cc3)ccc2c1 (centres undefined) | not fulfilled
O=C(O)c1cn(C2CC2)c2cc(N3CCNCC3)c(F)cc2c1=O | not fulfilled
COc1ccc2cc(C(C)C(=O)Nc3ccc(S(=O)(=O)Nc4cc(C)on4)cc3)ccc2c1 (centres undefined) | fulfilled
COc1ccc2cc(C(C)C(=O)NCc3n[nH]c(=S)[nH]3)ccc2c1 (centres undefined) | not fulfilled
COc1ccc2cc(C(C)C(=O)Nc3ccc(S(=O)(=O)Nc4ncccn4)cc3)ccc2c1 (centres undefined) | fulfilled
COc1ccc2cc(C(C)C(=O)Nc3ccc4c(c3)Sc3ccccc3N4)ccc2c1 (centres undefined) | fulfilled
